system: T-47D breast; assay: NCI tumour cell line growth inhibition, 48 h
Where a SMILES comes first, the peptide text is derived from it. The star is where a group is joined. Boc = CC(C)(C)OC(=O)*; OBn = c1ccc(CO*)cc1
measured_parameter: TGI

Given item CC(C)CC(NC(=O)C(Cc1ccccc1)NC(=O)C(Cc1ccccc1)NC(=O)OC(C)(C)C)C(=O)OCc1ccccc1 (stereo not drawn) (Boc-Phe-Phe-Leu-OBn; configuration not given here) , the value recorded as its TGI is > 100 µM

TGI for C[N+](C)(C)C(C1=CCCC1=O)c1ccccc1 (centres undefined) is > 100 µM

Sure, the documented TGI for `CN1CCN(c2ccc(C(=O)Nc3cccc(C#Cc4cccc5[nH]nc(N)c45)c3)cc2C(F)(F)F)CC1` is 5.55 µM

Briefly, TGI measured for CCc1ncnc2cc(OCC3CO3)c(OC)cc12 (centres undefined) : > 100 µM

Entry under test: `CC/C=C\C[C@H](O)C/C=C1/C(=O)C=C[C@@H]1C/C=C\CCCC(=O)NC` . Its TGI was 12.5 µM

Entry `COc1cc(Nc2nc3ccccc3nc2C(C)C)cc(OC)c1OC` ; TGI = > 100 µM

Form: compound = `Cn1c(C(C)(C)OC(=O)Oc2ccccc2)cnc1[N+](=O)[O-]` ; TGI = > 100 µM

Sample `CSc1ccc2c(cc1=O)[C@@H](NC(=O)c1ccc([N+](=O)[O-])cc1)CCc1cc(O)c(O)c(O)c1-2` ; TGI observed: > 100 µM

TGI in this record for `O=C1Nc2ccccc2/C1=C\c1c(Cl)nc2n1CCS2` : 91 µM
